The following molecules are listed with their measured log10 of GI50 values.
# Test system: MCF7
# Test: Growth inhibition of human MCF7 cells measured after 48 hrs by sulforhodamine B assay
# Assay type: functional
# Condition notes: MCF7, 48 h
Values are log10 of GI50 in µg/mL.

Below, 8 molecules whose answers are already recorded.
Checklist item: log10 of GI50 tested on MCF7, entry COc1cc([C@@H]2c3cc4c(c(O)c3C[C@H]3COC(=O)[C@@H]32)OCO4)cc(OC)c1OC [BETA-PELTATIN A] , value?
-3.26

Checklist item: log10 of GI50 tested on MCF7, entry COc1cc(C2C3=C(COC3=O)N(CCCO)c3cc4c(cc32)OCO4)cc(OC)c1OC (centres undefined) , value?
-0.47

Checklist item: log10 of GI50 tested on MCF7, entry COc1cc(C2C3=C(COC3=O)N(C3CCCC3)c3cc4c(cc32)OCO4)cc(OC)c1OC (centres undefined) , value?
-1.35

Checklist item: log10 of GI50 tested on MCF7, entry COc1cc(C2C3=C(COC3=O)N(C3CCCC3)c3cc4c(cc32)OCO4)cc(OC)c1O (centres undefined) , value?
-0.49

Checklist item: log10 of GI50 tested on MCF7, entry COc1cc(C2C3=C(COC3=O)N(CCO)c3cc4c(cc32)OCO4)cc(OC)c1OC (centres undefined) , value?
-0.43

Checklist item: log10 of GI50 tested on MCF7, entry COc1cc([C@@H]2c3cc4c(cc3C[C@H]3COC(=O)[C@@H]32)OCO4)cc(OC)c1OC [DESOXYPODOPHYLLOTOXIN] , value?
-2.57

Checklist item: log10 of GI50 tested on MCF7, entry COc1cc(-c2c3c(nc4cc5c(cc24)OCO5)COC3=O)cc(OC)c1OC , value?
0.53

Checklist item: log10 of GI50 tested on MCF7, entry COc1cc(C2C3=C(COC3=O)N(CCN3CCOCC3)c3cc4c(cc32)OCO4)cc(OC)c1OC (centres undefined) , value?
-0.05

Others:
Checklist item: log10 of GI50 tested on MCF7, entry COc1cc(C2C3=C(COC3=O)N(C3CCCCC3)c3cc4c(cc32)OCO4)cc(OC)c1OC (centres undefined) , value?
-1.28
